Method description: growth inhibitors of H69AR lung tumor, primary screen, human, duplicate replicates (AID 580);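 also: 100% = mean luminescence of untreated wells and 0% = no signal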
Conditions used: H69AR lung tumor cells viability, ATP luminescence, 72 h; at 10 µM; active compounds read low

>  <Compound>
CCCCN(CC)CCCNC(=O)CS(=O)(=O)Cc1nc(-c2cccc(OC)c2)oc1C

>  <viability (%)>
97.2

$$$$
>  <Compound>
CCn1c(=O)n(CC(=O)N(C)Cc2ccccc2)c(=O)c2ccccc21

>  <viability (%)>
91.8

$$$$
>  <Compound>
O=C(Cn1c(=O)n(Cc2ccc3c(c2)OCO3)c(=O)c2ccccc21)N1CCCc2ccccc21

>  <viability (%)>
82.2

$$$$
>  <Compound>
CCOc1ccccc1C1NC(=O)NC(C)=C1C(=O)OC1CCCC1C (stereo not given)

>  <viability (%)>
78.1

$$$$
>  <Compound>
Cc1ccc(S(=O)(=O)Cn2nnnc2CN(Cc2ccco2)CC2CCCO2)cc1 (stereo not given)

>  <viability (%)>
83.3

$$$$

Source of measurements: PubChem BioAssay
